Assign z-score to each entry below.
# measurement.protocol: Components of the Cytosolic LPS Sensing Pathway: Gene Identification via Genome-wide siRNA Screen
# test.conditions: RAW264.7 macrophages, IL-1a HTRF, actives lie on both sides, screened at 100 nM (by protocol), cells primed 5 h with Pam3CSK4 first
# Method: Non-canonical inflammasome activation by cytosolic LPS is a critical component of the host response to Gram-negative bacterial infection, however we lack a comprehensive understanding of the cellular processes that control this pathway. […] Lipofectamine RNAiMAX Transfection Reagent ([…]; Invitrogen) was added in […] serum-free, antibiotic-free media to plate wells using a Thermo Scientific Matrix WellMate and Microplate Stacker. […] The plates were read on an EnVision plate reader (PerkinElmer). […]
Hit rate of the full screen: of about 53,000 sequences, about 3,700 (7%) were called active. This is one part of a sample in which actives are shown more often than they occur.
One number for each entry.

Some sequences with known z-score results, for comparison:
sequence | z-score
GGGAGGAUACCUUCUAUGUTT against Atf6b | -0.43
GGGAGAUCAUGAUAGCAGCTT against Cox5b | -0.828
GCGCGACAAAUCGUAGGCUTT against Mamstr | -2.13
GGACUUGAUUAUCUACACUTT against Stk24 | -2.24

Your task in this section: give z-score for each listed record.
1. GGAAAAGGUGGCCUACACATT against Rhox11
2. CGUGUUCAGCGUAGAAACUTT against Ttll1
3. GGGUUGUAUGGCUCAAAUATT against Olfr728
4. GGGUGUCAUCCUUAUCCUGTT against Olfr655

OUTPUT:
1. -1.7
2. 0.283
3. 0.734
4. -0.0528

* * *

# measurement.protocol: Components of the Cytosolic LPS Sensing Pathway: Gene Identification via Genome-wide siRNA Screen
# test.conditions: RAW264.7 macrophages, IL-1a HTRF, actives lie on both sides, screened at 100 nM (by protocol), cells primed 5 h with Pam3CSK4 first
Among all 53,000 sequences or so, about 3,700 (7%) were called active. The full list was thinned out, with actives kept by preference.
So basically: is z-score under 0.4? Then y. Not under? Then n.

sequence | assigned.class
CGACGAAGAUAUUUACAGUTT against Vav1 | n
GGGCCUCCUGUAAACAUCCTT against D630039A03Rik | n
GGAGGAAAUAUGUUAACUATT against Atp6ap2 | n
GGAACAUCUUCAAAGAAGATT against Minar1 | y
GGUGGAUGAAGAGUAUAAGTT against Phka2 | y

INPUT: For GGAGUUACGUAGAACUACCTT against Adam25 , is the recorded z-score below the cut-off of 0.4?
OUTPUT: n

INPUT: For GGCCGACCUUUCUAUCAAUTT against Rasip1 , is the recorded z-score below the cut-off of 0.4?
OUTPUT: y

INPUT: For GCCUGACUUUAAUGAAGAATT against Slf2 , is the recorded z-score below the cut-off of 0.4?
OUTPUT: y

INPUT: For GCAGUGUAUACCUGGGCUATT against 1700001C19Rik , is the recorded z-score below the cut-off of 0.4?
OUTPUT: y

INPUT: For GCCCUCUGUGAGUAGUAAUTT against Shroom3 , is the recorded z-score below the cut-off of 0.4?
OUTPUT: n

INPUT: For GGCAGCAUUAAAACUUAAGTT against Chtop , is the recorded z-score below the cut-off of 0.4?
OUTPUT: n

INPUT: For GGAAAACUACCUCUUUUGATT against Cbll1 , is the recorded z-score below the cut-off of 0.4?
OUTPUT: n

INPUT: For GGAUUCAGGAACACGGAGATT against D17H6S53E , is the recorded z-score below the cut-off of 0.4?
OUTPUT: n

INPUT: For GCGAACUCCUCUUUAGGCATT against Chrng , is the recorded z-score below the cut-off of 0.4?
OUTPUT: y

INPUT: For AGUGCUCAUUAACUGUCGCTT against Snrpd2 , is the recorded z-score below the cut-off of 0.4?
OUTPUT: y

INPUT: For GGAGCUGAUAGGACUGAUGTT against Snap47 , is the recorded z-score below the cut-off of 0.4?
OUTPUT: n

INPUT: For GGUCAGACAGCAAUUCACATT against Gpr146 , is the recorded z-score below the cut-off of 0.4?
OUTPUT: y

* * *

# measurement.protocol: Components of the Cytosolic LPS Sensing Pathway: Gene Identification via Genome-wide siRNA Screen
# test.conditions: RAW264.7 macrophages, IL-1a HTRF, actives lie on both sides, screened at 100 nM (by protocol), cells primed 5 h with Pam3CSK4 first
Hit rate of the full screen: of about 53,000 sequences, about 3,700 (7%) were called active. Only a selection was taken, and actives are over-represented in it overall.
Assign z-score to each entry below.
Answers are plain numbers.

Some sequences with known z-score results, for comparison:
sequence | z-score
GCACUUUCCUAAUGGUCCUTT against Ifnab | 0.104
GGGAAACAAAAAGCAGAUATT against Ccdc47 | 0.325
GGAAGGUGCUAAAAAUAUATT against Pdhx | 0.23
CGUGUUGGAGUACAAUGAGTT against Imp3 | -0.927
CCCAGUAUCAGACUAUCAUTT against Inpp4a | -0.178
CCAUAGUAGCUACCUUGAUTT against Fam107a | 0.537
GGGAUCAGGCCAUUUCCAUTT against Vav2 | 2.26
GCUUAAUCCUUAGUCAGCATT against F2rl2 | -0.591
GGCACUUUCGGGAAUUCACTT against Nup160 | -2.5
GCUUGUUGCCUAGGACCUATT against Eif1ad | -1.14

Measured z-score, GGCAUUACAUUUCAAUGAATT against Serpinb12 : -0.71

* * *

# measurement.protocol: Components of the Cytosolic LPS Sensing Pathway: Gene Identification via Genome-wide siRNA Screen
# test.conditions: RAW264.7 macrophages, IL-1a HTRF, actives lie on both sides, screened at 100 nM (by protocol), cells primed 5 h with Pam3CSK4 first
# Description: Non-canonical inflammasome activation by cytosolic LPS is a critical component of the host response to Gram-negative bacterial infection, however we lack a comprehensive understanding of the cellular processes that control this pathway. […] Lipofectamine RNAiMAX Transfection Reagent ([…]; Invitrogen) was added in […] serum-free, antibiotic-free media to plate wells using a Thermo Scientific Matrix WellMate and Microplate Stacker. […] The plates were read on an EnVision plate reader (PerkinElmer). […]
Hit rate of the full screen: of about 53,000 sequences, about 3,700 (7%) were called active. Shown is part of a subset that was picked to be rich in actives.
So basically: is z-score under 0.02? Then Satisfied. Not under? Then Not satisfied.

Below are worked cases with known answers.
sequence | assigned.class
GGAUUUUGAAUUAUGGGAUTT against Relch | Satisfied
CCAAUAGUUGUGGACAUGATT against Crisp1 | Not satisfied
GCUAUUGGGUAGAUUGAUATT against Baat | Not satisfied
CGUACCACACGAUGAAUAGTT against Pou4f1 | Satisfied

Shifting focus to the sequence that follows.
INPUT: For GCGGCUCUUACGAGGUUUATT against Upk3a , is the recorded z-score below the cut-off of 0.02?
OUTPUT: Not satisfied

* * *

# measurement.protocol: Components of the Cytosolic LPS Sensing Pathway: Gene Identification via Genome-wide siRNA Screen
# test.conditions: RAW264.7 macrophages, IL-1a HTRF, actives lie on both sides, screened at 100 nM (by protocol), cells primed 5 h with Pam3CSK4 first
Screen size: about 53,000 sequences; about 3,700 (7%) were called active. The entries come from a sample that favours actives as a whole.
reported.property: z-score
Numbers only.

Some sequences with known z-score results, for comparison:
sequence | z-score
CCAGUUUGGUAAUCAUGAATT against Cyb561d2 | -0.244
GCUCAACAGCAGUGACGAUTT against Nras | -0.701
GGAAUGUCUAUCACAAUGGTT against Vmn1r230 | 1.78
GGCUCUAACAUGACAAUUUTT against Hyal1 | -0.251
GGCUCAGUGAGUUUCAGAATT against Snx25 | 3.66

Turning now to a further record.
Measured z-score, GCACCAAUCAAUGAGGAGATT against Was : -0.785

* * *

# measurement.protocol: Components of the Cytosolic LPS Sensing Pathway: Gene Identification via Genome-wide siRNA Screen
# test.conditions: RAW264.7 macrophages, IL-1a HTRF, actives lie on both sides, screened at 100 nM (by protocol), cells primed 5 h with Pam3CSK4 first
# Experimental: Non-canonical inflammasome activation by cytosolic LPS is a critical component of the host response to Gram-negative bacterial infection, however we lack a comprehensive understanding of the cellular processes that control this pathway. […] Lipofectamine RNAiMAX Transfection Reagent ([…]; Invitrogen) was added in […] serum-free, antibiotic-free media to plate wells using a Thermo Scientific Matrix WellMate and Microplate Stacker. […] The plates were read on an EnVision plate reader (PerkinElmer). […]
About 3,700 (7%) of roughly 53,000 sequences were called active.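 How the source made its calls: active means gene knockdowns whose robust z-score for IL-1 alpha signal is at least 2 or at most -2, so actives lie on both sides; inactive means the rest.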 The full list was thinned out, with actives kept by preference.
Log the outcome using a class from active, inactive

sequence | assigned.class
GGAAGUGGCGAGGUUCUAUTT against Folr1 | inactive
GGUCUACAGCUACCUGAAUTT against Npc2 | inactive
CGACUCCAUGUGGACUUAUTT against Gca | inactive
GGAAGACAUCAAGAUGUAATT against Rp1l1 | inactive
CCUAAAAGACUUCAUCCGUTT against Kcnh8 | active

INPUT: Check the results log: what was the call for GGGAGAAACCAUUUCAAGATT against Gm5084 ?
OUTPUT: inactive

INPUT: Check the results log: what was the call for CGCCUUAAACGAAGCUGCUTT against 1700034E13Rik ?
OUTPUT: inactive

INPUT: Check the results log: what was the call for GCUUCUGUUCGUUACGUCCTT against Ndufc2 ?
OUTPUT: active

INPUT: Check the results log: what was the call for GGAUCUGGACUUAAUGCUCTT against Tfeb ?
OUTPUT: inactive

INPUT: Check the results log: what was the call for GGCAUUGGUGUUUCAUUAATT against Gpm6a ?
OUTPUT: inactive

The measurements presented in this section are drawn from PubChem BioAssay AID1508600.
